test system: Candida glabrata ZIM 2389 (RPMI); test: Bliss independence sum of statistically significant ΔE (measured minus predicted growth inhibition) over checkerboard surface (fraction (sum of ΔE; 1 = 100%)); higher = more synergy; details: temperature: 37 °C
property-measured: Bliss independence sum
Give bare numbers.

// solved cases for Bliss independence sum follow
[[record]]
compound = "CC1(C)S[C@@H]2[C@H](NC(=O)[C@H](N)c3ccc(O)cc3)C(=O)N2[C@H]1C(=O)O [amoxicillin] + OC(Cn1cncn1)(Cn1cncn1)c1ccc(F)cc1F [fluconazole]"
target_or_system = "Candida glabrata ZIM 2389 (RPMI)"
property_measured = "Bliss independence sum"
quantitative_result = 2.98

[[record]]
compound = "COc1c(C)c2c(c(O)c1C/C=C(\\C)CCC(=O)O)C(=O)OC2 [mycophenolic acid] + C[C@@H]1[C@H](O)[C@@H](C)/C=C/C=C/C=C/C=C/C=C/C=C/C=C/[C@H](O[C@@H]2O[C@H](C)[C@@H](O)[C@H](N)[C@@H]2O)C[C@@H]2O[C@](O)(C[C@@H](O)C[C@@H](O)[C@H](O)CC[C@@H](O)C[C@@H](O)CC(=O)O[C@H]1C)C[C@H](O)[C@H]2C(=O)O [amphotericin B]"
target_or_system = "Candida glabrata ZIM 2389 (RPMI)"
property_measured = "Bliss independence sum"
quantitative_result = 4.37


For each of the compounds below, state Bliss independence sum.
1. CC1(C)S[C@@H]2[C@H](NC(=O)[C@H](N)c3ccc(O)cc3)C(=O)N2[C@H]1C(=O)O [amoxicillin] + C[C@@H]1[C@H](O)[C@@H](C)/C=C/C=C/C=C/C=C/C=C/C=C/C=C/[C@H](O[C@@H]2O[C@H](C)[C@@H](O)[C@H](N)[C@@H]2O)C[C@@H]2O[C@](O)(C[C@@H](O)C[C@@H](O)[C@H](O)CC[C@@H](O)C[C@@H](O)CC(=O)O[C@H]1C)C[C@H](O)[C@H]2C(=O)O [amphotericin B]
2. COc1c(C)c2c(c(O)c1C/C=C(\C)CCC(=O)O)C(=O)OC2 [mycophenolic acid] + OC(Cn1cncn1)(Cn1cncn1)c1ccc(F)cc1F [fluconazole]

[2.34, 1.41]
